System: Rattus norvegicus
Conditions: acute; oral; Wistar
Value Type: LD50 (mg/kg)
API: value field is a number in mg/kg; no unit string.

// known answers, use as guide
# Compound, Tested On, LD50 / mg/kg
rows = [
    ("Cc1ccc(S(=O)(=O)O)cc1", "Rattus norvegicus", 1410),
    ("CC1=CCC2CC1C2(C)C (centres undefined)", "Rattus norvegicus", 3700),
]

Okay, now this compound:
Problem: # lookup: Rattus norvegicus LD50, key = `CSC(C)(C)/C=N/O`
Result: 809

----------
# Lookup of reported LD50 keyed by entry
Tested on: Rattus norvegicus
Conditions: acute; oral; gavage
Please give a number only; it is taken to be in mg/kg.

# Compound, Tested On, LD50, mg/kg
rows = [
    ("CCCCCCCCCCCCCCN(C)C", "Rattus norvegicus", 2120),
    ("CCCCCN(CCCCC)C(=S)[S][Sb]([S]C(=S)N(CCCCC)CCCCC)[S]C(=S)N(CCCCC)CCCCC [Antimony diamyldithiocarbamate]", "Rattus norvegicus", 16400),
    ("CCCCCCCCCCCCCCCCN(C)C", "Rattus norvegicus", 1020),
]

Note: attention shifts to another entry.
Problem: Specify reported LD50 for the compound shown: `Clc1cc(Cl)c(Cl)nc1Cl`
Result: 1000

----------
NOAEL overview
Test system: Mus musculus
Settings: repeat dose other; oral
Provide the reading as a plain figure in mg/kg-day.

Please review the entries below; each comes with its answer.
# Compound, Value Type, Quantity Unit, Recorded Value
measured = [
    ("CC(Cl)(Cl)Cl", "NOAEL", "mg/kg-day", 1000),
    ("CCCCCCOC(=O)c1ccccc1C(=O)OCCCCCC [Dihexyl phthalate]", "NOAEL", "mg/kg-day", 55),
    ("CC(=O)[O-].CC(=O)[O-].[O]=[U+2]=[O] [Uranyl acetate]", "NOAEL", "mg/kg-day", 3.07),
]

Then there is this compound:
Problem: For `ClC(Cl)=C(Cl)Cl` , write its NOAEL.
Result: 1.4

----------
We begin with a simple list: items and their reported LD50.
System: Rattus norvegicus
Settings: acute; oral; Sprague-Dawley
Answer with a number only, understood to be in mg/kg.

# Compound, Tested On, Recorded Value
records = [
    ("O=C(Cl)CCl [Chloroacetyl chloride]", "Rattus norvegicus", 207),
    ("CCC(C)(C)c1ccc(O)c(C(C)(C)CC)c1", "Rattus norvegicus", 920),
]

Problem: Write down the reported LD50 (system: Rattus norvegicus) of CCC(C)(C#N)N=NC(C)(C#N)CC (stereo not given)
Result: 337

----------
Recorded LD50, one value per entry.
Tested on: Oryctolagus sp.
Conditions: acute; dermal; occlusive; New Zealand

Recorded results for 5 molecules are shown here.
# Molecule, LD50
rows = [
    ("Cc1cc(O)c(C(C)(C)C)cc1Sc1cc(C(C)(C)C)c(O)cc1C", "> 5010 mg/kg"),
    ("CCc1ccc(C)cc1", "> 5000 mg/kg"),
    ("CCCCCCCC=O", "5210 mg/kg"),
    ("CCN(CC)C(=S)SSC(=S)N(CC)CC [Tetraethylthiuram disulfide]", "> 2000 mg/kg"),
    ("CC(C)CCC(C)Nc1ccc(NC(C)CCC(C)C)cc1 (configuration not stated)", "> 3160 mg/kg"),
]

Problem: For the molecule CCOC(=O)CCl [Ethyl chloroacetate] , report LD50.
Result: 255 mg/kg

Problem: Give LD50 for CC(C)(c1ccc(Oc2ccc3c(c2)C(=O)OC3=O)cc1)c1ccc(Oc2ccc3c(c2)C(=O)OC3=O)cc1 [4,4'-(4,4'-Isopropylidenediphenoxy)bisphthalic dianhydride]
Result: > 2000 mg/kg
